These data points were gathered from the nanobody polyreactivity screen of Harvey et al. (2022).

PROCEDURE TEXT: yeast display, Sf9 membrane polyspecificity reagent, FACS + sequencing; frameworks hold sequencing errors
MEASUREMENT LABEL: polyreactivity (PSR sort gate)

Example sequences with recorded polyreactivity (PSR sort gate):
RESIDUE STRING	polyreactivity (PSR sort gate)
QVHLVESGVGLVQAGGSLRLSCAASGITFGYYAMGWYRQAPGKERENVAAITRRGGSTYYADSVKGRFTISRDNAKNTVYLQMNSLKPVDTAVYYCAAVSYRYWFIEDNYWGQGTQVTVSS	high polyreactivity
QVQLVESGGGLVQAGGSLRLSCAASGSTFGAYAMGWYRQAPGKEMELVAAISRRGGSTYYADSVKGRFTISRDNAKNTVYLQMNSLKPEDTAVYYCNAVGTRVDGEHYYWGQGTKVTVSS	high polyreactivity
QVQLVESGGGLVQAGGSLRLSCAASGIIFLLYAMGWYRQAPGKERELVAAITNGGRTNYADSVKGRFTISRDNAKNTVYLQMNSLKPEDTAVYYCNAVLSVPDYTLFDYWGQGTQVTVSS	low polyreactivity
QVQLVESGGGLVQAGGSLRLSCAPSGSTFRYNAMGWYRQAPGKERELVAAITFSGDSTSYADSVKGRFTISRDNAKNTVYLQMNSLKPEDTAVYYCAVDTWNGDGSGYSLEFEYWGQGTQVTVSS	low polyreactivity

*Q* Tell us which polyreactivity (PSR sort gate) value is on record for "QVQLVESGGGLVQAGGSLRLSCAASGRTFFWYAMGWYRQAPGKERELVADISSSGGSTYYADSVKGRFTISRDNAKNTVYLQMNSLKPEDTAVYYCAALSPWWRGGYNYWGQGTQVTVSS"
*A* high polyreactivity

* * *

PROCEDURE TEXT: yeast display, Sf9 membrane polyspecificity reagent, FACS + sequencing; frameworks hold sequencing errors
MEASUREMENT LABEL: polyreactivity (PSR sort gate)

RESIDUE STRING	polyreactivity (PSR sort gate)
QVQLVESGGGLVQAGGSLRLSCAASGRIFYRNAMGWSRQAPGKERELVASITSAGRTYYADSVKGRFTISRDNAKNTVYLQMNSLKPEDTAVYYCAVRVAVLLNLYGYWGQGTQVTVSS	low polyreactivity
QVQLVESGGGLVQAGGSLRLSCAASGYIFRYYAMGWYRQAPGKERELVAAISRSGGNTYYADSVKGRFTISRDNAKNTVYLQMNSLKPEDTAVYYCAVVLSTYSYADYDYWGQGTQVTVSS	high polyreactivity
QVQLVESVGGLVQAGGSLRLSSAASGIIFRRYPMVWYREPPGKDRELVAAISSGGRTYYADSGKGRFTISRDNAKNSVYLHMNSLKQEDTAVYYCAARWWYKNKYWGQGTQVTVSS	high polyreactivity
QVQLVESGGGLVQAGGSLRLSCAASGFIFPDNAMGWYRQAPGKERELVATITSGGNTYYADSVKGRFTISRDNAKNTVYIQMNSLKPEDTAVYYSAAEWDYYDYDWYIAWTIDYWGQGTQVTVSS	low polyreactivity
QVQLVESAGGLVQAGGSLRLSCAASGSIFPTNTMGWYRQAPGKERELVATIRKSSGRTYYADSVKGRFTISRDNAKNTVYLQMNSLKPEDTAVYYCNARRYSGALRYDYWGQGTQVTVSS	high polyreactivity
QVQLVESGGGLVQAGGSRRLSCAASGLTVHDNGMGWYRQAPGQEREVVAAISWSDGTTYYADSVKGRVSISRDNAKNTVYLQMNSLKPEDTAVFYCAAEAYYFWDLVDEDYWGQGTQVTVSS	high polyreactivity
QVHLVESGGGLVQAGGSLRLSCAASGGIFYAYDMGWYRQAPGKERELVAAITWTGGTTYYADSVKGRFTISRDNAKKTVYLLMNSLKPEDTAVYYCAADDGTNSTARDKDDYYYWGQGTEVTVSS	low polyreactivity
QVQLVESGGGLVQAGGSLRLSCAASGSTLYRYAMGWYRQAPGKERELVAAITRGSGSTYYADSVKGRFTISRDNAKNTVYLQMNSLKPEDTAVYYCATVKRNHLDGFEYWGQGTQVTVSS	high polyreactivity

*Q* Tell me its polyreactivity (PSR sort gate) given "QVHLVESGGGFVQAGGSLRLSCAASGSIFWLYAMGWYRHAPGKERELVAAISWSTGGTYYADSVKGRFTISRDNAKNTVYLQMNSLKPEDTAVYYCNADTYDQYNYWGQGTQVTVSS" as the entry.
*A* low polyreactivity

*Q* Indicate its recorded polyreactivity (PSR sort gate); the sequence in question is "QVQLVESGGGLVQAGGSLRLSCAASGFIFHLYGMGWYRQAPGKERELVAAISSGGRTYYADSVKGRFTISRDNAKNTVYLQMNSLKPEDTAVYYCAVYVAYLYSYYYWGQGTQVTVSS"
*A* low polyreactivity

*Q* Give the measured polyreactivity (PSR sort gate) for "QVQLVESGGGLVQAGGSLRLSCASSGLIYHRNAMGWYRQAPGKERELVAAITKTGGGTYYADSVKGRFTISRDNAKNTVYLQMNSLKPEDTAVYYCAADTQRTFYYWGQGTQVTVSS"
*A* low polyreactivity

*Q* Give me measured polyreactivity (PSR sort gate), please, for this sequence: "QVQLVESGGGLVQAGGSLRLSCAASGSTFQSYTMGWYRQAPGKERELVATITSTSSTSYADSVKGRFTISRDNAKNTVYLQMNSLKPEDTAVYYCNAEGLHWGQGTQVTVSS"
*A* low polyreactivity

*Q* Give polyreactivity (PSR sort gate) for "QVQLVESGGGLVQAGGSLRLSCADSGYTFSPNAMGWYRQAPGKELELVAAISSAVSTDYADSVKGRFTISRDNAKNTVYLQMNSLKPEDTAVYYCAADDQYRVTLGYDYWGQGTQVTVSS"
*A* low polyreactivity

*Q* For "QVQLVESGGGLVQAGGSLRLSCAASGIIFRFYAMGWSRQAPGKERELVATISKRGGTTYYADSVKGRFTISRDYAMNTVDLQMNSLKPEDSAVYYCAVRLYLEMDYWGQGTQVTVSS" , write its polyreactivity (PSR sort gate).
*A* high polyreactivity

*Q* Identify measured polyreactivity (PSR sort gate) corresponding to "QVQLVESGGGLVQAGGSLRLSCAAYGRIFLPNSMGWYIQAPGKERELVAAITWSGGSTYYADSVKGRFTISRDNAKYTVFLQMTSLIPEDTAVYYGAGRGFSYRRRSQQFDYWGLGTQVTVSS"
*A* high polyreactivity
